The origin of these recorded values is patent US9045461B2.

Target: sRAGE binding to β-amyloid (Homo sapiens, UniProt Q15109)
Construct: extracellular domain can be isolated by proteolysis of RAGE to generate soluble RAGE (sRAGE) comprised of the V and C domains
Sequence (Q15109 23-342 limits assumed): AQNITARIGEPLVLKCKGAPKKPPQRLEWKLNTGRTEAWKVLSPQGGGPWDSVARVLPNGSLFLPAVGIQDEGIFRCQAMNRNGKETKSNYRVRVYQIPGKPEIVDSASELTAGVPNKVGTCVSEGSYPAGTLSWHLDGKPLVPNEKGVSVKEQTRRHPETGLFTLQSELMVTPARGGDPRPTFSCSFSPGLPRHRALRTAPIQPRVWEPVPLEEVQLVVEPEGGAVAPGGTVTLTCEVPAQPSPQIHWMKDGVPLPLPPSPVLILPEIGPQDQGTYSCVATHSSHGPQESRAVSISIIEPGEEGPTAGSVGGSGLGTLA
Experiment: RAGE binding assay (ELISA), β-amyloid as the RAGE ligand
Conditions: compounds tested in hydrochloride salt form, concentration at which 50% signal has been inhibited
Counter-ions that a name gives are not always drawn.
Parameter: IC50 (µM)
Give the value, in units of µM, as a plain number.

GET /values?readout=IC50&item= CCCCc1nnc(OCCCN(CC)CC)cc1-c1ccc(OCc2ccccc2)cc1 [Example 4, dihydrochloride]
1.24

Next record, please: CCCCc1nnc(C(=O)NCC2CCN(C)CC2)cc1-c1ccc(OCc2ccccc2)cc1 [Example 81, dihydrochloride]
1.54

What do we get for CCCCc1nnc(O[C@@H]2CN(C)CC[C@H]2C(F)F)cc1-c1ccc(OC2CCCCC2)cc1 (racemic) [Example 48, dihydrochloride] ?
8.96

Same read-out for CCCCc1c(-c2ccc(OC3CCCCC3)cc2)cc(OC2CCN(C)CC2)n[n+]1[O-] [Example 40, hydrochloride] ?
2.18

Moving on to CCCCc1nnc(C(=O)NC2CCN(C)CC2)cc1-c1ccc(OCc2ccccc2)cc1 [Example 80, dihydrochloride]
1.25

Also check CCCCc1nnc(C(=O)N[C@H]2CC[C@@H](N(C)C)CC2)cc1-c1ccc(OC2CCCCC2)cc1 [Example 95, dihydrochloride]
1.05

Entry CCCCc1nnc(C(=O)NCC2(F)CCN(C)CC2)cc1-c1ccc(OC2CCCCC2)cc1 [Example 109, dihydrochloride] please
5.83

Next entry: CCCCc1nnc(C(=O)NC2CCN(C)CC2)cc1-c1ccc(OC2CCCCC2)cc1 [Example 84, dihydrochloride]
1.96

Likewise for CCCCc1nnc(OC2CCN(C)CC2)cc1-c1ccc(OC2CCCCC2)c(-c2nnn(C)n2)c1 [Example 79, dihydrochloride] ?
1.49
